These measurements were taken from PubChem BioAssay.

TEST_DETAILS: fission yeast growth modulation, primary screen, strain 972, OD600, 24 h, no modulator (AID 1090);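 also: basal condition with compound alone and no growth modifier present; test concentration not given here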
STUDY_CONDITIONS: S. pombe 972 growth, higher = more signal, called active from +8 up or from −8 down
Active and inactive are the calls of the source.
TEST_READOUT: z-score

stdin: Sample CN(C)C(=O)[C@@]1(CCS(=O)(=O)c2ccccc2)N=C(c2ccc(OCCCO)cc2)O[C@H]1c1ccccc1N=[N+]=[N-] — what was its z-score?
stdout: -0.173 (inactive)

stdin: Sample COCCOC(=O)N1C(=O)[C@@]2(c3cc(C#CC4=CCCCC4)ccc31)[C@H](c1ccc(OCCO)cc1)N1[C@H](c3ccccc3)[C@H](c3ccccc3)OC(=O)[C@H]1[C@@H]2C(=O)N1CCCCCCC1 — what was its z-score?
stdout: -0.301 (inactive)

stdin: Sample COCCOC(=O)N1C(=O)[C@@]2(c3cc(C#CC4(O)CCCCCC4)ccc31)[C@H](c1ccc(OCCO)cc1)N1[C@H](c3ccccc3)[C@H](c3ccccc3)OC(=O)[C@H]1[C@@H]2C(N)=O — what was its z-score?
stdout: 0.926 (inactive)

* * *

TEST_DETAILS: MM1S cell viability effects, profiling panel, calcein-AM fluorescence, 48 h, basal (AID 1165);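 also: viability of MM1S multiple myeloma cells under basal unstimulated conditions; test concentration not given here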
STUDY_CONDITIONS: higher = more signal
TEST_READOUT: z-score
Give a plain numeric answer without units written out.

stdin: Sample COCC(=C=CC[C@@H](O)c1ccc(OCCO)cc1)C[C@@H](O)COCc1ccccc1 — what was its z-score?
stdout: 0.105

stdin: Sample COc1ccc(CCNC(=O)[C@@H]2c3ccccc3C(=O)N(CC34CC5CC(CC(C5)C3)C4)[C@H]2c2ccc(CO)cc2)cc1 — what was its z-score?
stdout: -1.39

stdin: Sample COCCOC(=O)N1C(=O)[C@@]2(c3cc(C#CCC(C(=O)OC)C(=O)OC)ccc31)[C@H](c1ccc(OCCO)cc1)N1[C@H](c3ccccc3)[C@H](c3ccccc3)OC(=O)[C@H]1[C@@H]2C(=O)N1CCCCCCC1 — what was its z-score?
stdout: -0.169

stdin: Sample C=CCC(OC(C)=O)[C@@H]1[C@@H](N(Cc2cccc3ccccc23)C(=O)c2ccc(-c3ccccc3)cc2)c2cc(OCCCO)ccc2N1C(=O)c1ccc2ccccc2n1 (stereo partly drawn) — what was its z-score?
stdout: -0.848

stdin: Sample CN(C)C(=O)[C@@]1(CCS(=O)(=O)c2ccccc2)N=C(c2ccc(OCCCO)cc2)O[C@H]1c1ccccc1N=[N+]=[N-] — what was its z-score?
stdout: -1.68

stdin: Sample NC(=O)N1C(=O)C2C(C1=O)C1C=C(CCCO)C2C(c2ccc(CN3CCCC3)cc2)N1Cc1cccc(OC(F)(F)F)c1 (stereo not drawn) — what was its z-score?
stdout: -3.34

stdin: Sample CCCCN1CC=CC23O[C@@H]4C=CCOC(=O)[C@@H]4[C@H]2C(=O)N(C(CO)C(C)C)[C@@H]3C1=O (stereo partly drawn) — what was its z-score?
stdout: 0.543

stdin: Sample C=CCC(OC(C)=O)[C@@H]1[C@@H](N(Cc2ccc(-c3cccc(C(F)(F)F)c3)o2)C(=O)c2cccc3ccccc23)c2cc(OCCCO)ccc2N1C(=O)c1ccc2ccccc2n1 (stereo partly drawn) — what was its z-score?
stdout: -0.142

stdin: Sample O=C1O[C@H](c2ccccc2)[C@H](c2ccccc2)N2[C@H]1[C@@H](C(=O)N1CCN(c3ncccn3)CC1)[C@]1(C(=O)Nc3ccccc31)[C@H]2c1ccc(O)cc1 — what was its z-score?
stdout: -1.28

stdin: Sample COc1cccc(OC)c1C(=O)O[C@H]1[C@@H]2OC(=O)[C@H](Cc3cccc(Br)c3)C/C=C/C[C@@H](Cc3cccc(Br)c3)C(=O)O[C@H]2[C@@H](OC)O[C@@H]1CO — what was its z-score?
stdout: -2.6

stdin: Sample CN1C(=O)[C@]2(CCS(=O)(=O)c3ccccc3)N=C(c3ccc(OCCCO)cc3)O[C@@H]2c2ccccc21 — what was its z-score?
stdout: -2.04

stdin: Sample CN(C)CCCC[C@@H]1NC(=O)[C@@H]2C[C@H](C(=O)NCc3ccc(F)cc3)[C@H](c3ccc(O)cc3)N2C1=O — what was its z-score?
stdout: 0.135

stdin: Sample CCCCC(=C=CC[C@@H](O)c1cccc(OCCO)c1)C[C@@H](O)COCc1ccccc1 — what was its z-score?
stdout: -1.21

* * *

TEST_DETAILS: small-molecule microarray binders of probe aCHRDL2, primary screen, biochemical, biotinylated probe, 635/667 nm fluorescence (AID 1100)
STUDY_CONDITIONS: higher = more signal
TEST_READOUT: composite z-score
Give a plain numeric answer without units written out.

stdin: Sample C=CC[C@@]12N=C(c3ccc(OCCCO)cc3)O[C@@H]1c1ccccc1N(Cc1ccccc1)C2=O — what was its composite z-score?
stdout: 1.08

stdin: Sample O=C1O[C@H](c2ccccc2)[C@H](c2ccccc2)N2[C@H]1[C@@H](C(=O)NC[C@H](O)c1ccccc1)[C@]1(C(=O)Nc3ccc(C#CCCO)cc31)[C@H]2c1ccccc1OCCO — what was its composite z-score?
stdout: 0.558

stdin: Sample O=C(NCC(F)(F)F)[C@@H]1c2ccccc2C(=O)N(CC23CC4CC(CC(C4)C2)C3)[C@H]1c1ccc(CO)cc1 — what was its composite z-score?
stdout: -0.217

stdin: Sample O=C1NC(=O)C2C1C=CC(C(O)c1cccc(O)c1)N2Nc1ccc(Cl)cc1Cl (stereo not drawn) — what was its composite z-score?
stdout: 0.815

stdin: Sample CC(C)CNC(=O)[C@@H]1c2ccccc2C(=O)N(Cc2ccccc2)[C@H]1c1ccc(CO)cc1 — what was its composite z-score?
stdout: 0.96

stdin: Sample O=c1cccc(-c2ccccc2C(F)(F)F)o1 — what was its composite z-score?
stdout: 0.567

stdin: Sample Cc1c(-c2ccc(-c3ccc(Cl)c(Cl)c3)o2)nc(-c2ccccc2)c2c1CO[Si]2(C(C)C)C(C)C — what was its composite z-score?
stdout: 0.11

stdin: Sample COc1ccc(C#Cc2ccc3c(c2)[C@]2(C(=O)N3)[C@H](c3ccc(OCCO)cc3)N3[C@H](c4ccccc4)[C@H](c4ccccc4)OC(=O)[C@H]3[C@@H]2C(=O)O)cc1 — what was its composite z-score?
stdout: 0.176

* * *

TEST_DETAILS: small-molecule microarray binders of probe aDKK1, primary screen, biochemical, biotinylated probe, 635/667 nm fluorescence (AID 1099);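 also: score merges 667nm spot fluorescence with signal to noise across triplicate slides; reference of the scale not given here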
STUDY_CONDITIONS: higher = more signal
composite z-score of -0.1 or higher: met. Under -0.1: not met.

stdin: In plain terms: is recorded composite z-score at least -0.1 for C=CCC(OC(C)=O)[C@@H]1[C@@H](N(Cc2cccc3ccccc23)C(=O)c2ccc(C)cc2)c2cc(OCCCO)ccc2N1C(=O)c1ccc2ccccc2n1 (some centres not stated) ?
stdout: not met

stdin: In plain terms: is recorded composite z-score at least -0.1 for CC(=O)NCCCC[C@@H]1NC(=O)[C@@H]2C[C@H](C(=O)NCCCCCC[N+](C)(C)C)[C@H](c3ccc(O)cc3)N2C1=O ?
stdout: not met

stdin: In plain terms: is recorded composite z-score at least -0.1 for COC(=O)[C@@]1(Cc2ccccc2CN=[N+]=[N-])COC(c2ccc(OCCCO)cc2)=N1 ?
stdout: met

stdin: In plain terms: is recorded composite z-score at least -0.1 for O=C1OCCC=C[C@H]2OC34C=CCN(CCN5CCOCC5)C(=O)[C@H]3N(CCCO)C(=O)[C@@H]4C12 (some centres not stated) ?
stdout: not met

stdin: In plain terms: is recorded composite z-score at least -0.1 for CC(C)CNC(=O)[C@@H]1c2ccccc2C(=O)N(C2Cc3ccccc3C2)[C@H]1c1ccc(CO)cc1 ?
stdout: met

stdin: In plain terms: is recorded composite z-score at least -0.1 for CC(C)C[C@H]1NC(=O)[C@H](Cc2ccccc2)NC(=O)[C@@]23C(=O)N[C@@H](Cc4ccccc4)C2[C@H](C)[C@@]2(C)O[C@H]2C3/C=C/C/C=C\CNC1=O (some centres not stated) ?
stdout: met

stdin: In plain terms: is recorded composite z-score at least -0.1 for O=C1O[C@@H](c2ccccc2)[C@@H](c2ccccc2)N2[C@@H](c3ccc(OCCO)cc3)[C@]3(C(=O)Nc4ccc(C#CCCO)cc43)[C@@H](C(=O)Nc3nc4ccccc4s3)[C@H]12 ?
stdout: met

* * *

TEST_DETAILS: E. coli acrAB mutant growth effects, primary screen, E. coli filamentation inducers, strain DRC39, OD650, 24 h (AID 1178);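 also: growth measured as culture turbidity by optical density at 650 nm; test concentration not given here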
STUDY_CONDITIONS: higher = more signal, called active from +8 up or from −8 down
z-score of 0.4 or higher: Y. Under 0.4: N.

stdin: In plain terms: is recorded z-score at least 0.4 for Cc1ccc(S[C@]2(C(=O)NC3CC3)CC(=O)N(Cc3cc(C(F)(F)F)cc(C(F)(F)F)c3)[C@@H]2c2ccc(CO)cc2I)cc1 ?
stdout: N

stdin: In plain terms: is recorded z-score at least 0.4 for O=C1N(CCS(=O)(=O)c2ccccc2)c2ccccc2[C@@H]2OC(c3ccc(OCCCO)cc3)=N[C@]12CCS(=O)(=O)c1ccccc1 ?
stdout: Y

stdin: In plain terms: is recorded z-score at least 0.4 for Cc1ccc(S[C@]2(C(=O)NCC(F)(F)F)CC(=O)N(C3CCCCC3)[C@@H]2c2ccc(CO)cc2)cc1 ?
stdout: Y

stdin: In plain terms: is recorded z-score at least 0.4 for CC#CCO[Si](C#CCCCCCC)(C(C)C)C(C)C ?
stdout: N

stdin: In plain terms: is recorded z-score at least 0.4 for CCCCN1CC=CC23O[C@@H]4C=CCOC(=O)[C@@H]4[C@H]2C(=O)N(C(CO)C(C)C)[C@@H]3C1=O (some centres not stated) ?
stdout: N

stdin: In plain terms: is recorded z-score at least 0.4 for COCCn1c(C(=O)N2CCCC2)cc2c1C[C@H]1CN(C(=O)c3ccccc3)[C@@](Cc3ccccc3)(C(=O)OC)[C@@H]21 ?
stdout: N
